tested on: PC-3; assay: Antiproliferative activity against human PC3 cells after 72 hrs by MTT assay; type: functional, cell-based; conditions: PC-3, 72 h
RECORDED METRIC: IC50 (µM)
Could you give me the number in µM? Just the number is fine.

Requested read-out: IC50. Entry: "C=C1C(=O)O[C@@H]2[C@H]1C(=O)O[C@@H]2CCCCCC" 6.4

====

test: Inhibition of hyaluronidase (unknown origin); design: species or system Homo sapiens
For each of the compounds below, state its IC50.
Return type: number; implicit unit µM.

Which IC50 reading was recorded for the compound "CC1(C)[C@@H](O[C@H]2O[C@H](C(=O)O)[C@@H](O)[C@H](O)[C@H]2O[C@@H]2O[C@H](C(=O)O)[C@@H](O)[C@H](O)[C@H]2O)CC[C@]2(C)[C@H]3C(=O)C=C4[C@@H]5C[C@@](C)(C(=O)O)CC[C@]5(C)CC[C@@]4(C)[C@]3(C)CC[C@@H]12" ? 320

Entry under review: "CCCCCC[C@H]1OC(=O)[C@@H]2[C@H]1OC(=O)[C@]21CCC=C[C@H]1/C=C/[C@@H]1O[C@H](C)C[C@@H]1O" . Reported IC50? 300
